Exercise: state measured EC50 for each of the binders provided.
target: ZIKV E Domain III (ZEDIII), polyhistidine-AviTag, produced in HEK-293-6E cells; experiment: ELISA

# annotated cases, reported EC50 shown
[[record]]
binder = "Z042 (antibody, V domains shown) VH: QVQLQESGPGLVKPSETLSLSCTVSSGSISNYYWNWIRQPPGKGLEWIGYIYYSGSISYNPSLKSRVTISVDTSKNQLSLKLNSVTAADTAVYYCARGPDNRYWGQGTLVTVSS VL: EIVMTQSPATLSVSPGERVTLSCRASQSVSYNLAWHQQKPGQAPRLLIYGASTRATGIPARFSGSGSGTEFTLTISNMQSEDFAVYYCQQYNNWPPVFTFGPGTKVDIK"
obsvalue = "0.0586 µg/mL"

[[record]]
binder = "Z004 (MEX18_89) (antibody, V domains shown) VH: EVQLLESGGGLVQPGGSLRLTCATSGFTFRDYAMSWVRQAPGKGLEWVSSYSGIDDSTYYADSVKGRFTISRDNSKSTLSLHMNSLRAEDSALYFCAKDRGPRGVGELFDSWGQGTLVTVSS VL: DIQMTQSPSTLSASVGDRVTITCRASQSISKWLAWYQQKPGKAPKLLIYTTSTLKSGVPSRFSGSGSGTEFTLTISSLQPDDFATYYCQHFYSVPWTFGQGTKVEIK"
obsvalue = "0.0237 µg/mL"

[[record]]
binder = "Z035 (BRA112_71) (antibody, V domains shown) VH: EVQLLESGGGLIQPGGSLRLSCAASGFTFSSYAMSWVRQAPGKGLEWVSGISGSGGASDNGASRYYADSVKGRFSISRDNSKNTVYLQMNSLRAEDTAVYYCAKDRLSGGFGELFQKWGQGTLVTVSS VL: DIQMTQSPSTLAASVGDRVTITCRASQNINSWLAWYQQKPGKAPKFLIYKASTLESGAPSRFSGSGSGTEFTLTISSLQPDDFATYYCQHYYSYPYTFGQGTKVEIK"
obsvalue = "0.0284 µg/mL"

[[record]]
binder = "Z014 (antibody, V domains shown) VH: EVQLLESGGDLVQPGGSLRLSCAASGFTFSSYGMSWVRQAPGKGLEWVSSISGFDPSTYYADSVRGRFTIARDNSKNTLYLQMKSLRVEDTAIYYCAKDRLVRGFGEVLDSWGQGTLVTVSS VL: DIQMTQSPSSLSASVGDRVTITCRASQGISNYLAWYQQKPREVPKLLIYAASTLHSGVPSRFSGSGSGTDFTLTISGLQPEDVATYYCQKYNSVPWTFGQGTKVEIK"
obsvalue = "0.106 µg/mL"

[[record]]
binder = "Z024 (antibody, V domains shown) VH: EVQLVQSGAEVRKPGESLRISCKTSGYTFTSHWVAWVRQMPGKGLEWMGIIYPGDSDTRYSPSFQGQISISADKSINTAYLQWSSLKASDTGIYYCARHDGRGYCSPTRCFFSGMDVWGQGTTVTVSS VL: DIQLTQSPSSLSASVGDRVTITCRASQSISNYLNWYQQKPGKAPNLLIYAASSLQSGVPSRFSGSGSGTDFTLTISSLQPEDYAIYYCQQTDRTPLTFGQGTKVEIK"
obsvalue = "> 4 µg/mL"

[[record]]
binder = "Z010 (MEX105_88) (antibody, V domains shown) VH: EVQLLESGGGLVQPGGSLRLSCAASGFTFSNYAMAWVRQAPGKGLEWVSLIYSGDDSTYYADFVKGRFTISRHNSKNTLSLQMNSLRAEDTAIYYCVKDRGTGWSSIVHWGQGTLVTVSS VL: DIQMTQSPSTLSASVGDRVTITCRASQTISNWLAWYQQKPGKAPKLLIYQASSLESGVPSRFSGSGSGTEFTLTISSLQPDDFATYYCQQYSTYWTFGQGTKVEIK"
obsvalue = "> 0.4 µg/mL"


// each listed binder needs a value for EC50
1. Z028 (MEX84_p4-53) (antibody, V domains shown) VH: EVQLLESGGGLVQPGGSLRLSCAASGFTFSAYAMSWVRQAPGKGLEWVSSINGHSDSTYFADSVKGRFTISRDNSKNTLYLQMNSLRAEDTALYYCAKDRLREGIGELFHSWGQGTLVTVSS VL: DIQMTQSPSTLSASIGDRVTITCRASQSITPWLAWYQQKPGKAPKFLIYQTSILESGVPSRFSGSGSGTEFTLTISSLQPDDFATYYCQHYHSYPWTFGQGTKVEIK
2. Z001 (MEX18_21) (antibody, V domains shown) VH: EVQLLESGGGLVQPGGSRRLSCATSGFSFDTYAMSWLRQAPGKGLEWVSSFSGLDDSTYYADSVKGRFTISRDNSKNTLYLQMNSLRAEDTAIYYCAKDRGPRGIGELFDFWGQGTLVTVSS VL: DIQMTQSPSTLSASVGDRVTITCRASQSISRWLAWYQQKPGKAPKLLIYKTSTLKSEVPSRFSGSGSGTEFTLTISSLQPDDFATYYCQHFHSVPWTFGQGTKVEIK

0.0371 µg/mL
0.0206 µg/mL

List EC50 for every entry below, keeping the order given.
1. Z043 (antibody, V domains shown) VH: QVQLVQSGAEVKKPGASVKVSCKTSGYTFTSYYMNWVRQAPGQGLEWMGIIKPSDGSTNYAQKFQGRVTMTRDTSTSTVYMELRSLRSEDTAVYYCGRDSKGWLQLRGDIDYWGQGTLVTVSS VL: QSALTQPASVSGSPGQSITISCAGTSSDVGNYNLVSWYQQHPGKAPKLLIYEVSKRPSGVSNRFSGSKSGNTASLTISGLQAEDEADYYCCSYAGSSTYVFGTGTEVTVL
2. Z039 (antibody, V domains shown) VH: EVQLLESGGGLVQPGGSLRLSCAASGYIFDNYAMSWVRQAPGKGLEWVSYINGGGYGTDYADSVKGRFTISRDNSKRILYLQMNSLRVGDTAVYYCAKSPYVGGYGLPGDSWGQGTLVTVSS VL: EIVLTQSPGTLSLSPGERATLSCRASQTIFFNYLAWYQKKPGQAPRLLVHGASTRATGIPDRFSGSGSGTDFTLTINSLDPEDFAVYYCQQYGDSPPTFGGGTKVEIK
3. Z021 (MEX84_p4-23) (antibody, V domains shown) VH: QVQLQESGPGLVKPSETLSLTCTVSGGSIDTYYWSWIRQTPGKGLEWIGCFYYSVDNHFNPSLESRVTISVDTSKNQFSLKMTSMTASDTAVYYCARNQPGGRAFDYWGPGTLVTVSS VL: EIVLTQSPATLSLSPGQRATLSCRASQSVSNYFAWYQQKPGQAPRLLIYDTSKRATGTPARFSGSGSGTDFTLTISSLEPEDFAVYYCQERNNWPLTWTFGLGTKVEIK

0.188 µg/mL
0.0885 µg/mL
0.0554 µg/mL
